- System: L1210 leukemia ip in BDF1 mice, survival T/C
- ASSAY: NCI In Vivo Anticancer Drug Screen. Data for tumor model L1210 Leukemia (intraperitoneal) in B6D2F1 (BDF1) mice
- SETUP_CONDITIONS: endpoint: mean survival time; dose: 100.0 mg/kg/injection; schedule: Q04DX002 (ip); vehicle: Klucel (hydroxypropylcellulose) (HPC); higher = longer survival
Toxic doses and inconclusive results are not listed.
MEASURED_ENDPOINT: T/C

COMPOUND | T/C
O=S(c1ccccc1)c1ccccc1 | 102 % of control

Query: Short answer please: T/C, L1210 leukemia ip in BDF1 mice, survival T/C, entry NC(=O)C(CCC(=O)O)NC(=O)OCc1ccccc1 (configuration not stated)
Result: 100 % of control

Query: Same thing, different compound: CCC(=O)c1ccc(N2CCCCC2)cc1
Result: 103 % of control

Query: Same thing, different compound: O=C1c2ccccc2-c2ccc(-c3ccccc3)c3cccc1c23
Result: 102 % of control

Query: Same thing, different compound: CCCCCCC1C/C(=C/N(C)C)C(=O)O1 (configuration not stated)
Result: 90 % of control

Query: Same thing, different compound: Cc1cccc(OC(=O)Nc2cccc(Cl)c2)c1
Result: 95 % of control

Query: Same thing, different compound: COc1ccc(OC)c(-c2csc(=O)s2)c1
Result: 111 % of control

###

- System: L1210 leukemia ip in BDF1 mice, survival T/C
- ASSAY: NCI In Vivo Anticancer Drug Screen. Data for tumor model L1210 Leukemia (intraperitoneal) in B6D2F1 (BDF1) mice
- SETUP_CONDITIONS: endpoint: mean survival time; dose: 400.0 mg/kg/injection; schedule: Q01DX009 (ip); vehicle: Klucel (hydroxypropylcellulose) (HPC); higher = longer survival
Inconclusive results and toxic doses are left out.
# Lookup of reported T/C keyed by entry

Field: example entries. Status: answers known.
COMPOUND | OBSERVED_RESULT
CC(Cc1ccccc1)NC(=O)/C=C/C(=O)O (stereo unspecified) | 95 % of control
COc1ccc(NC(=O)Oc2ccc(NC(C)=O)cc2)c(OC)c1 | 92 % of control
CCCCCCCCC(=O)CCC | 98 % of control
O=C(COc1ccc(Cl)cc1Cl)OCCOCCOCCOCCOCCOCCOCCOCCOCCOCCOCCOCCOCCO | 98 % of control

Query: Please look up its T/C: COc1ccc(/C=C(\NC(C)=O)C(=O)O)cc1
Result: 98 % of control

###

- Test system: L1210 leukemia ip in BDF1 mice, survival T/C
- ASSAY: NCI In Vivo Anticancer Drug Screen. Data for tumor model L1210 Leukemia (intraperitoneal) in B6D2F1 (BDF1) mice
- SETUP_CONDITIONS: endpoint: mean survival time; dose: 50.0 mg/kg/injection; schedule: Q04DX002 (ip); vehicle: Klucel (hydroxypropylcellulose) (HPC); higher = longer survival
Inconclusive results and toxic doses are left out.
# Lookup of reported T/C keyed by entry

Field: example entries. Status: answers known.
COMPOUND | MEASURED_ENDPOINT | OBSERVED_RESULT
O=C(O)c1ccc(I)cc1.[Ni] | T/C | 100 % of control
Cc1cc(C)c2c(c1)CC2NC(=O)Cc1ccccc1 (stereo not drawn) | T/C | 89 % of control

Consider the additional compound presented here.
Query: Please look up its T/C: CCCN(C(=O)CCl)c1ccccc1
Result: 105 % of control

###

- System: L1210 leukemia ip in BDF1 mice, survival T/C
- ASSAY: NCI In Vivo Anticancer Drug Screen. Data for tumor model L1210 Leukemia (intraperitoneal) in B6D2F1 (BDF1) mice
- SETUP_CONDITIONS: endpoint: mean survival time; dose: 150.0 mg/kg/injection; schedule: Q04DX003 (ip); vehicle: saline; higher = longer survival
Toxic doses and inconclusive results are not listed.
# Lookup of reported T/C keyed by entry

Field: example entries. Status: answers known.
COMPOUND | T/C
CCCCCCCCCCCCCCNCCC(=O)O | 102 % of control
Cc1c2cnccc2c(C)c2c1c1ccccc1n2CC1CO1 (centres undefined) | 108 % of control
[N-]=[N+]=NCCCCCCCCCCN=[N+]=[N-] | 101 % of control

Query: Short answer please: T/C, L1210 leukemia ip in BDF1 mice, survival T/C, entry C(=N/OC(c1ccccc1)(c1ccccc1)c1ccccc1)/c1ccccc1
Result: 94 % of control

###

# Lookup of reported T/C keyed by entry
- System: L1210 leukemia ip in BDF1 mice, survival T/C
- ASSAY: NCI In Vivo Anticancer Drug Screen. Data for tumor model L1210 Leukemia (intraperitoneal) in B6D2F1 (BDF1) mice
- SETUP_CONDITIONS: endpoint: mean survival time; dose: 400.0 mg/kg/injection; schedule: Q01DX009 (ip); vehicle: Klucel (hydroxypropylcellulose) (HPC); higher = longer survival
Toxic doses and inconclusive results are not listed.

COMPOUND | OBSERVED_RESULT
Cc1ccc(C(C)(O)CC(O)(C(F)(F)F)C(F)(F)F)cc1 (configuration not stated) | 98 % of control

Query: Short answer please: T/C, L1210 leukemia ip in BDF1 mice, survival T/C, entry CNC(=O)Nc1nnc(C)s1
Result: 114 % of control

Query: Same thing, different compound: O=[N+]([O-])c1cc(Br)cnc1Br
Result: 103 % of control

Query: Same thing, different compound: Cc1ccc(NS(=O)(=O)c2ccc(Cl)cc2)cc1Cl
Result: 88 % of control

Query: Same thing, different compound: COC(=O)C1(C(=O)OC)C2CCCCC21C (configuration not stated)
Result: 102 % of control

Query: Same thing, different compound: O=C(Nc1c[nH]c(=O)[nH]c1=O)Oc1ccccc1
Result: 93 % of control

Query: Same thing, different compound: CCOC(=O)C(C(=O)OCC)C1c2ccccc2C([N+](=O)[O-])c2ccccc21 (configuration not stated)
Result: 103 % of control

Query: Same thing, different compound: O=[N+]([O-])c1ccc(/C=C/CCOc2ccccc2)cc1
Result: 91 % of control

Query: Same thing, different compound: O=C1C=C(C(=O)O)C(c2ccccc2)CC1 (configuration not stated)
Result: 98 % of control

Query: Same thing, different compound: COC(=O)c1ccc(OC(=O)Nc2cccc(C(C)=O)c2)cc1
Result: 104 % of control

Query: Same thing, different compound: CCc1ccccc1NC(=O)Nc1ccc(S(N)(=O)=O)cc1
Result: 103 % of control

Query: Same thing, different compound: CC(=O)Nc1ccc([N+](=O)[O-])c(NC(C)=O)n1
Result: 97 % of control

###

- Tested on: L1210 leukemia ip in BDF1 mice, survival T/C
- ASSAY: NCI In Vivo Anticancer Drug Screen. Data for tumor model L1210 Leukemia (intraperitoneal) in B6D2F1 (BDF1) mice
- SETUP_CONDITIONS: endpoint: mean survival time; dose: 200.0 mg/kg/injection; schedule: Q01DX001 (ip); vehicle: Klucel (hydroxypropylcellulose) (HPC); higher = longer survival
Inconclusive results and toxic doses are left out.
MEASURED_ENDPOINT: T/C

Field: example entries. Status: answers known.
MOLECULE | T/C
NC(=O)N/N=C\C=N/NC(N)=O | 92 % of control
O=[N+]([O-])c1cc(Br)cnc1Br | 105 % of control
CC(C)C(=O)Nc1ccc([N+](=O)[O-])c(C(F)(F)F)c1 | 102 % of control
COc1ccccc1N=Nc1c(O)n(-c2ccccc2C)c(=S)n(-c2ccc(C)cc2)c1=O | 93 % of control
Clc1ccc2c(c1)/C(=C\c1ccnc3ccccc13)c1cc(Cl)cc(Cl)c1-2 | 92 % of control
CCSCC1OC(n2cnc3c(N)nc(F)nc32)C(O)C1O (configuration not stated) | 86 % of control
O=C(O)CSC1(SCC(=O)O)CCCCC1 | 97 % of control
CCCCCCCCCOc1ccc(C=O)cc1OC | 102 % of control
Cc1ccc(NC(=O)c2ccc(Cl)cc2Cl)cc1C | 90 % of control
O=C(NCCc1ccc([N+](=O)[O-])cc1)c1ccc(S(=O)(=O)F)cc1 | 94 % of control

Query: Please look up its T/C: CCCC1(CCC)c2ccccc2C(=O)c2ccccc21
Result: 96 % of control

###

# Lookup of reported T/C keyed by entry
- Test system: L1210 leukemia ip in BDF1 mice, survival T/C
- ASSAY: NCI In Vivo Anticancer Drug Screen. Data for tumor model L1210 Leukemia (intraperitoneal) in B6D2F1 (BDF1) mice
- SETUP_CONDITIONS: endpoint: mean survival time; dose: 6.25 mg/kg/injection; schedule: Q04DX003 (ip); vehicle: saline; higher = longer survival
Toxic doses and inconclusive results are not listed.

Field: example entries. Status: answers known.
COMPOUND | T/C
C1=CC([P+](Cc2ccccc2)(c2ccccc2)c2ccccc2)CC1 (centres undefined) | 95 % of control
CCOC(=O)N(Cl)Cl | 98 % of control
Cc1c2cnccc2c(C)c2c1c1ccccc1n2CC1CO1 (centres undefined) | 110 % of control

Query: Please look up its T/C: COC1OC(COC(C)=O)C(OC(C)=O)C(OC(C)=O)[CH]1[Hg][O]C(C)=O (centres undefined)
Result: 96 % of control
